Reported Ki, UniProt P25021.
Sequence (P25021 whole entry): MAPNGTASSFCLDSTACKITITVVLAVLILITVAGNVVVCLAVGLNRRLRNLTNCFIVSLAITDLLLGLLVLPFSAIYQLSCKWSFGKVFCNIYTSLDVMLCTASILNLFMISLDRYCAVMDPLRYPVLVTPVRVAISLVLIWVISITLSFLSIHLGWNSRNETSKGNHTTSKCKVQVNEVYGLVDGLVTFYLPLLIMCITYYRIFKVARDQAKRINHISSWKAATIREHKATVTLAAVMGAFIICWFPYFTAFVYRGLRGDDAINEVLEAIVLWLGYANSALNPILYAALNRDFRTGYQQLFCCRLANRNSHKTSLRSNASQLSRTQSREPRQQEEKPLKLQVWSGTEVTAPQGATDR
Write the value in µM as a bare number.

Previously resolved entries follow.
- compound: "c1ccc(CCN[C@H]2C3C4CC5C6C4CC3C6C52)cc1 (stereo partly specified)"
  number: 3.9
- compound: "COc1cc(CN[C@H]2C3C4CC5C6C4CC3C6C52)cc(OC)c1OC (stereo partly specified)"
  number: 1.73
- compound: "CN(CCc1ccccc1)[C@H]1C2C3CC4C5C3CC2C5C41 (stereo partly specified)"
  number: 3.04

Consider now this further compound.
Give measured Ki for CN(Cc1ccc2c(c1)OCO2)[C@H]1C2C3CC4C5C3CC2C5C41 (stereo partly specified) (UniProt P25021). 8.52

----------
Target: UniProt P50406
Sequence (P50406 whole entry): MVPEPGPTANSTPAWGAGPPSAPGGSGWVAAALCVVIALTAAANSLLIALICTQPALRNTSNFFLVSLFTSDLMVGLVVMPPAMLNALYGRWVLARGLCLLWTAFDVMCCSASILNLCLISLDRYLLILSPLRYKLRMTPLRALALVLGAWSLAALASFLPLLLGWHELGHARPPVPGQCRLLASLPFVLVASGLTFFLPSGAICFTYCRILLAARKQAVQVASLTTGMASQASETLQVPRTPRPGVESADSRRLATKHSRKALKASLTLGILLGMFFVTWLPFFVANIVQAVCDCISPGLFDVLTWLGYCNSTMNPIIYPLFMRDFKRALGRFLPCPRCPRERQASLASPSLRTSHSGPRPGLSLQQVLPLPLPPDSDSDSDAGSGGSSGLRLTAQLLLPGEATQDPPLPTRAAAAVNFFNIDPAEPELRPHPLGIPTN
readout label: Ki

Give Ki for this entry on UniProt P50406: c1ccc(CCN[C@H]2C3C4CC5C6C4CC3C6C52)nc1 (stereo partly specified) > 10 µM

----------
Molecular target: Alpha-1A adrenergic receptor (Homo sapiens, UniProt P35348)
readout label: pKi
Field pKi (float): negative decimal logarithm of the concentration in molar.

Output reported pKi of the compound c1ccc(CCN[C@H]2C3C4CC5C6C4CC3C6C52)cc1 (some centres not stated) on Alpha-1A adrenergic receptor (Homo sapiens, UniProt P35348). 5.22

----------
Overview of reported inhibition across a group of compounds:
Biological target: 5-hydroxytryptamine receptor 3A (Homo sapiens) (UniProt P46098)
Sequence (P46098 whole entry): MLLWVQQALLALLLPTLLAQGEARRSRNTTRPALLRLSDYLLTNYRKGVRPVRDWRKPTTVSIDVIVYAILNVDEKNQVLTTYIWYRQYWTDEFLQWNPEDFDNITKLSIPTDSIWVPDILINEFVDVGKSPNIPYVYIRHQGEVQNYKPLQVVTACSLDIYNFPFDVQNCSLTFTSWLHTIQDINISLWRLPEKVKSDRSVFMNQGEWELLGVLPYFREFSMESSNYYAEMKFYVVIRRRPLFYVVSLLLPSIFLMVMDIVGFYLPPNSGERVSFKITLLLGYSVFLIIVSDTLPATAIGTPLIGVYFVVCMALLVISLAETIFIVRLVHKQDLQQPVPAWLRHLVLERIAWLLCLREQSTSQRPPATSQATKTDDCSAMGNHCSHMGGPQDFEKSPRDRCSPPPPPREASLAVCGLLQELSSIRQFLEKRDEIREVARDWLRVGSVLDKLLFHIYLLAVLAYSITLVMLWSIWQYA
Test: Inhibition of 5-HT3 receptor (unknown origin) at 10 uM by PDSP assay relative to control

- compound: "COc1ccc(CN(C)[C@H]2C3C4CC5C6C4CC3C6C52)cc1OC (some centres undefined)"
  inhibition: "< 50%"

For the compound COc1cc(CN[C@H]2C3C4CC5C6C4CC3C6C52)cc(OC)c1OC (some centres undefined) , report inhibition. < 50%

# return recorded inhibition for input CN(CCc1ccccn1)[C@H]1C2C3CC4C2C(=O)C2C4C3C21 (some centres undefined) < 50%

Look up inhibition of CN(Cc1cccnc1)[C@H]1C2C3CC4C5C3CC2C5C41 (some centres undefined) and report it. < 50%

Fill in inhibition for record CN(CCCc1cccc(F)c1)[C@H]1C2C3CC4C5C3CC2C5C41 (some centres undefined) < 50%

Name the recorded inhibition of the compound listed here: c1ccc(CCN[C@H]2C3C4CC5C6C4CC3C6C52)cc1 (some centres undefined) < 50%

For the compound CN(CCc1ccccc1)[C@H]1C2C3CC4C2C(=O)C2C4C3C21 (some centres undefined) , report inhibition. < 50%

Please list inhibition recorded for the compound CN(Cc1ccccc1)[C@H]1C2C3CC4C2C(=O)C2C4C3C21 (some centres undefined) < 50%

Identify measured inhibition corresponding to COc1ccc(CN[C@H]2C3C4CC5C6C4CC3C6C52)cc1OC (some centres undefined) < 50%

Given c1cc2c(cc1CN[C@H]1C3C4CC5C6C4CC3C6C51)OCO2 (some centres undefined) , respond with its inhibition. < 50%

Return inhibition for the following compound: CN(CCc1ccccc1)[C@H]1C2C3CC4C5C3CC2C5C41 (some centres undefined) < 50%

Please supply the value of reported inhibition for the item CN(CCc1cccc(F)c1)[C@H]1C2C3CC4C2C(=O)C2C4C3C21 (some centres undefined) < 50%

Retrieve inhibition measured for CN(CC1CCCCC1)[C@H]1C2C3CC4C5C3CC2C5C41 (some centres undefined) and print it. < 50%

Give recorded inhibition. CN(Cc1cccc(F)c1)[C@H]1C2C3CC4C2C(=O)C2C4C3C21 (some centres undefined) < 50%

Recall and state the measured inhibition for COc1ccc(CN(C)[C@H]2C3C4CC5C3C(=O)C3C5C4C32)cc1OC (some centres undefined) . < 50%

Find the measured inhibition of CN(Cc1ccc2c(c1)OCO2)[C@H]1C2C3CC4C5C3CC2C5C41 (some centres undefined) and report it. < 50%

Please report inhibition for the following compound: CN(Cc1ccccc1)[C@H]1C2C3CC4C5C3CC2C5C41 (some centres undefined) < 50%

Give recorded inhibition. C1CCC(CN[C@H]2C3C4CC5C6C4CC3C6C52)CC1 (some centres undefined) < 50%

For the compound C1C2C3CC4C2C2C1C3[C@H](NCC13C5C6C7C5C1C7C63)C42 (some centres undefined) , report inhibition. < 50%

----------
Target: Sodium-dependent serotonin transporter (Homo sapiens, UniProt P31645)
Sequence (P31645 whole entry, looked up): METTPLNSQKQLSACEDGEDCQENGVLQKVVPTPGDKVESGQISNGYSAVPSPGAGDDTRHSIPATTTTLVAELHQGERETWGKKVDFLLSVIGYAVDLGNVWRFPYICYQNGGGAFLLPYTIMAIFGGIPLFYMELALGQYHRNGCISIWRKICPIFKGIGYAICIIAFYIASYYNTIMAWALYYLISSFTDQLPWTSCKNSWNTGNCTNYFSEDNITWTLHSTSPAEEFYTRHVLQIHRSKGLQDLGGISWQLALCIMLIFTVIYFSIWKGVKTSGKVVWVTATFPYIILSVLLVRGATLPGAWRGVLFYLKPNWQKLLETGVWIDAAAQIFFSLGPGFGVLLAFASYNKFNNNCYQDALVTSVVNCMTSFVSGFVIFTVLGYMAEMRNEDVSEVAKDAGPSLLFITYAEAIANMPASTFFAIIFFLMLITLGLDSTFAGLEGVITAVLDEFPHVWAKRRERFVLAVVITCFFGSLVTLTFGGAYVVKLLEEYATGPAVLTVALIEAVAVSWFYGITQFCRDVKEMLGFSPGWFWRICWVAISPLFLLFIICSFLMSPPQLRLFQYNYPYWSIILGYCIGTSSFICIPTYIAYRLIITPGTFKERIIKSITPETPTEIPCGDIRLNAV
Assay: Displacement of [3H]-citalopram from human SERT expressed in HEK cell membranes at 10 uM relative to control
Conditions: HEK293
Each entry below carries its reported inhibition.

- molecule: "CN(CCc1ccccn1)[C@H]1C2C3CC4C2C(=O)C2C4C3C21 (stereo not given in full)"
  inhibition: "< 50%"

Could you now consider this next molecule?
Annotate the molecule CN(Cc1ccccc1)[C@H]1C2C3CC4C5C3CC2C5C41 (stereo not given in full) with its measured inhibition. < 50%

----------
Assay: Inhibition of Ca2+ channel (unknown origin) by PDSP assay
Parameters: species or system Homo sapiens
readout label: pKi
Please keep in mind that pKi is minus log10 of the molar concentration; only the number is needed.

# return recorded pKi for entry c1ccc(CN[C@H]2C3C4CC5C6C4CC3C6C52)cc1 (stereo partly specified) 5.44

----------
Molecular target: UniProt:P28221
Sequence (P28221 whole entry): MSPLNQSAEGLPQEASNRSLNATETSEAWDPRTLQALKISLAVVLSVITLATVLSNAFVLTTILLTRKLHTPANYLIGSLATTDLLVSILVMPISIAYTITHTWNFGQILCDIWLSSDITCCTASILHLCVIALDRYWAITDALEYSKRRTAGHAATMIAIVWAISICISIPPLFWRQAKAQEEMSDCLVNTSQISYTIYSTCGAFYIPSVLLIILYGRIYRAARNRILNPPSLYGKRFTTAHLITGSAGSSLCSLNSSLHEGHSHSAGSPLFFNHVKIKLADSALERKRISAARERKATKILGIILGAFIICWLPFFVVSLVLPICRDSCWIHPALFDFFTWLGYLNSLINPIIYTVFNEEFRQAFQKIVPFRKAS
Experiment: Inhibition of 5-HT1D receptor (unknown origin) at 10 uM by PDSP assay relative to control
Reported inhibition values follow for various compounds

- compound: "COc1cc(CN(C)[C@H]2C3C4CC5C6C4CC3C6C52)cc(OC)c1OC (stereo not given in full)"
  target entity: "UniProt:P28221"
  inhibition: "< 50%"

Answer with reported inhibition of COc1ccc(CN(C)[C@H]2C3C4CC5C6C4CC3C6C52)cc1OC (stereo not given in full) < 50%

Hello, please tell me recorded inhibition for this one: c1ccc(CCN[C@H]2C3C4CC5C6C4CC3C6C52)cc1 (stereo not given in full) < 50%

Assign inhibition to the following record: CN(CC1CCCCC1)[C@H]1C2C3CC4C5C3CC2C5C41 (stereo not given in full) < 50%

----------
# inhibition values compiled below
Biological target: D(2) dopamine receptor (Homo sapiens)
Sequence (P14416 whole entry): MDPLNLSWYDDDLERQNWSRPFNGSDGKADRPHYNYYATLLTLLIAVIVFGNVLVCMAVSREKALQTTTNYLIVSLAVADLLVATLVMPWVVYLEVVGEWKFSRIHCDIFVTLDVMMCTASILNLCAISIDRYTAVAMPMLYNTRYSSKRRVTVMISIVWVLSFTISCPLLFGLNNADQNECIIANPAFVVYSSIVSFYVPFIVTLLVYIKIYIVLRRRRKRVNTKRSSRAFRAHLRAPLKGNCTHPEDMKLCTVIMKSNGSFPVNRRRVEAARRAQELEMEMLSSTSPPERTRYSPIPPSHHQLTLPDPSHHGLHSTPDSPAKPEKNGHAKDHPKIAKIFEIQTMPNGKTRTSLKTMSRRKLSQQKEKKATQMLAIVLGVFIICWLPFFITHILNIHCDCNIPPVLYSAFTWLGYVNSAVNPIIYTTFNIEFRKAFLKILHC
Test: Inhibition of dopamine D2 receptor (unknown origin) at 10 uM by PDSP assay relative to control

- molecule: "COc1ccc(CN(C)[C@H]2C3C4CC5C6C4CC3C6C52)cc1OC (stereo partly specified)"
  inhibition: "< 50%"
- molecule: "CN(Cc1ccc2c(c1)OCO2)[C@H]1C2C3CC4C5C3CC2C5C41 (stereo partly specified)"
  inhibition: "< 50%"
- molecule: "CN(CCc1ccccn1)[C@H]1C2C3CC4C2C(=O)C2C4C3C21 (stereo partly specified)"
  inhibition: "< 50%"
- molecule: "COc1ccc(CN[C@H]2C3C4CC5C6C4CC3C6C52)cc1OC (stereo partly specified)"
  inhibition: "< 50%"
- molecule: "COc1cc(CN(C)[C@H]2C3C4CC5C6C4CC3C6C52)cc(OC)c1OC (stereo partly specified)"
  inhibition: "< 50%"

Consider the record given below.
System D(2) dopamine receptor (Homo sapiens). Read-out inhibition. Item c1ccc(CN[C@H]2C3C4CC5C6C4CC3C6C52)cc1 (stereo partly specified) . Report value. < 50%

----------
Biological target: Delta-type opioid receptor (Homo sapiens)
Sequence (P41143 whole entry): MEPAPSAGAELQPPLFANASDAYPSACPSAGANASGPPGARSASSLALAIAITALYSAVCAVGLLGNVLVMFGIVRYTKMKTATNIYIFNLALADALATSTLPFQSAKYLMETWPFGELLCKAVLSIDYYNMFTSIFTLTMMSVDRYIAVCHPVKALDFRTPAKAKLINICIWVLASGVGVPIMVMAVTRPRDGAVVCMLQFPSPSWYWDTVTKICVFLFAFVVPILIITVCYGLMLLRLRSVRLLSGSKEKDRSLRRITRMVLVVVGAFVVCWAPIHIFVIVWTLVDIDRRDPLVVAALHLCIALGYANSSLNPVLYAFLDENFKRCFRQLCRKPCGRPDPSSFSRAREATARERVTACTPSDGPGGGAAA
Test: Inhibition of delta opioid receptor (unknown origin) by PDSP assay
readout label: pKi
The read-out pKi is expressed as -log10 of concentration in moles per litre.

Answer with the recorded pKi of CN(CCc1ccccn1)[C@H]1C2C3CC4C5C3CC2C5C41 (stereo partly specified) only. 5.55

----------
Target: Alpha-1A adrenergic receptor (Homo sapiens)
Sequence (whole entry): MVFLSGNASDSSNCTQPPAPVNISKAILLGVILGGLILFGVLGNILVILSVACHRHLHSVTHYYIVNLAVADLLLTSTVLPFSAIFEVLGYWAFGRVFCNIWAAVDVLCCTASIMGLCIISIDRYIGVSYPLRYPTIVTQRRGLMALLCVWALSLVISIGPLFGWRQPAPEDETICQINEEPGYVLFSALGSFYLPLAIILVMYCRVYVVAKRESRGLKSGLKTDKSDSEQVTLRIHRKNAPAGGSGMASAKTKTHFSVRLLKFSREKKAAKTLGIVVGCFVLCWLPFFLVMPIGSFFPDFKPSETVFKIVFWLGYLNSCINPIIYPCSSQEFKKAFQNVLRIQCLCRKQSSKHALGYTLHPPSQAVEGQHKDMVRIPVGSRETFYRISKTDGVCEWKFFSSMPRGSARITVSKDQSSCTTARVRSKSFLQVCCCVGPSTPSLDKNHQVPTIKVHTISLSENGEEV
Test: Inhibition of adrenergic alpha1A receptor (unknown origin) at 10 uM by PDSP assay relative to control
Catalogue of inhibition readings, one per entry.

The cases that follow already have their inhibition on record.
- compound: "CN(CCCc1cccc(F)c1)[C@H]1C2C3CC4C2C(=O)C2C4C3C21 (stereo partly specified)"
  inhibition: "< 50%"
- compound: "CN(CCc1ccccc1)[C@H]1C2C3CC4C2C(=O)C2C4C3C21 (stereo partly specified)"
  inhibition: "< 50%"
- compound: "CN(Cc1ccccc1)[C@H]1C2C3CC4C2C(=O)C2C4C3C21 (stereo partly specified)"
  inhibition: "< 50%"
- compound: "CN(Cc1cccc(F)c1)[C@H]1C2C3CC4C2C(=O)C2C4C3C21 (stereo partly specified)"
  inhibition: "< 50%"
- compound: "C1C2C3CC4C2C2C1C3[C@H](NCC13C5C6C7C5C1C7C63)C42 (stereo partly specified)"
  inhibition: "< 50%"

Please supply the value of reported inhibition for the item COc1ccc(CN(C)[C@H]2C3C4CC5C3C(=O)C3C5C4C32)cc1OC (stereo partly specified) < 50%

Hello, please tell me recorded inhibition for this one: CN(CCc1ccccn1)[C@H]1C2C3CC4C2C(=O)C2C4C3C21 (stereo partly specified) < 50%
